Entry source: the nanobody polyreactivity screen of Harvey et al. (2022)

- ASSAY_TEXT: yeast display, Sf9 membrane polyspecificity reagent, FACS + sequencing; frameworks hold sequencing errors
ATTRIBUTE_MEASURED: polyreactivity (PSR sort gate)

INSERT INTO assay_data (item_sequence, attribute_measured, observed) VALUES
  ('QVQLVESGGRLVQAGGSLRLSCAASGLTLFRYAKGWYRTAPGKERELVAAIDYGGGTYYADSVKGRFTISRDNAKNTVYLQMNSLKPEDTAVYYCAVEPEYKYYEGDYWGQGTQVTVSS', 'polyreactivity (PSR sort gate)', 'low polyreactivity'),
  ('QVQLVESGGGLVQAGGSLRLSCAASGRTFLIYAMGWYRQAPGKERELVAAITSGGRTKYADSVKGRFTISRDNAKNTVYLQMNSLKPEDTAVYYCAARTGVYRYSRKFYYWGQGTQVTVSS', 'polyreactivity (PSR sort gate)', 'high polyreactivity'),
  ('QVQLVESGGGLLQAGGSLRLSCAASGITFERNGMGWYRQAPGKERELVAAIRSGGSTYYADSVKGRFTISRDNAKNTVYLQMNTLKPEDTGVYYCAAVTQGGYTYLGDYWGQGTQVTVSS', 'polyreactivity (PSR sort gate)', 'low polyreactivity'),
  ('QVQLVESGGGLVQAGGSLRLSCAASGFIFHVYAMGWYRQAPGKEREFVAGISWRGGRTYYADSVKGRFTISRDNAKNTVYLQLNSLKPEDTAVYYCAALGLNAGGKFDYWGQGTQVTVSS', 'polyreactivity (PSR sort gate)', 'high polyreactivity'),
  ('QVQLVESGGGLVQAGGSLRLSCAASGFTFFYNAMGWYRPAPGKERELGAVITWNGGTTYYADSVKGRFTISRDNAKNTVYLQMNSLKTEDTAVYYCNADGLILYDYWGQGTQVTVSS', 'polyreactivity (PSR sort gate)', 'low polyreactivity'),
  ('QVQLVESGGGLVQAGGSLRLSCAASGFIFGYYTMGWYRQAPGKERELVAAISSRGGSTYYAYSVKGRFTISRDNAKNTVYLQINSLKPEDTAVYYCAKRSTYTGSWWERGYCGQGTQVTVSS', 'polyreactivity (PSR sort gate)', 'high polyreactivity'),
  ('QVQLQESGGGLVQAGGSLRLSCAASGNIFLGDTMGWYRQAPGKEREFVAAIARGGNPYYADSVKGRFTISRNNANNTVYLQKNSLKTEDTAVHYCAVQRSHASDYNYWCQGTQVTVSS', 'polyreactivity (PSR sort gate)', 'low polyreactivity'),
  ('QVQLVESGGGLVQAGGSLRLSCSASGFTFFYYAMGWYRQAPGKERELVASISSGGSSTYYADSVKGRFTISRDNAKNTVYLQMNSLKPEDTAVYYFAATSRYRGSWYYYWGQGTQVTVSS', 'polyreactivity (PSR sort gate)', 'high polyreactivity');

Query: Need polyreactivity (PSR sort gate), item QVQLQESGGGLVQAGGSLRLWCAASRNISGSSDLGWYHQAPGKEREFVASITSGGTTYYADSVKGRFTISRDNAKNTVYLQMNSLKPEDTAVYYCAVGDPADAEFGYWGQGTQVTVSS
Response: low polyreactivity

Query: What do you have for QVQLVESGGGLVQAGGSLRLSCAASGTTFAVYTMGWYRQAPGKERELSTSYADSVKGRFTISRDNAKNTVYLQMNILKQEDTAVYYCNRDFYEFDSNSYRFDYWGQGTQVTVSS ?
Response: low polyreactivity

Query: Also, QVQLVESGGGLVQAGGSLRLSCAASGFTFVYYAMGWYRQAPGKERELVAGISSSAGSTYYADSVKGRFTISRDNAKNTVYLQMNSLKPEDTAVYYCNAEYYWWPFDYWGQGTQVTVSS please.
Response: high polyreactivity
